Tested on: DU145
Assay: Euclidean distance of Cell Painting phenotypic profile (signed KS, 77 features) to DMSO centroid (dimensionless distance); 5 or 10 uM (library dependent); higher = stronger phenotypic change vs DMSO (phenoactivity)
Conditions: 48 h
Structures can show the parent of a compound that is named as a salt.
Range-based classes on measured Euclidean distance: lo (below 1), mid (1 to below 2), hi (2 or more)

>  <MOLECULE>
CN(C)CCOc1ccc(/C(=C(/CCCl)c2ccccc2)c2ccccc2)cc1 [Toremifene Citrate]

>  <TESTED_ON>
DU145

>  <CATEGORY_LABEL>
mid

$$$$
>  <MOLECULE>
CCC(C)(C)c1ccc(CC(C)CN2C[C@@H](C)O[C@@H](C)C2)cc1 (some centres undefined) [Amorolfine HCl]

>  <TESTED_ON>
DU145

>  <CATEGORY_LABEL>
lo

$$$$
>  <MOLECULE>
CO/N=C(\C(=O)N[C@@H]1C(=O)N2C(C(=O)O)=C(CSc3nnnn3C)CS[C@H]12)c1csc(N)n1 [Cefmenoxime hydrochloride]

>  <TESTED_ON>
DU145

>  <CATEGORY_LABEL>
mid

$$$$
>  <MOLECULE>
Oc1ccc(O)cc1 [Hydroquinone]

>  <TESTED_ON>
DU145

>  <CATEGORY_LABEL>
mid

$$$$
>  <MOLECULE>
N=C(N)NC(=N)N1CCOCC1 [Moroxydine HCl]

>  <TESTED_ON>
DU145

>  <CATEGORY_LABEL>
mid

$$$$
>  <MOLECULE>
CCCSc1nc(N[C@@H]2C[C@H]2c2ccc(F)c(F)c2)c2nnn([C@@H]3C[C@H](OCCO)[C@@H](O)[C@H]3O)c2n1 [Ticagrelor]

>  <TESTED_ON>
DU145

>  <CATEGORY_LABEL>
mid

$$$$
>  <MOLECULE>
Cc1c(C(N)=O)cc([N+](=O)[O-])cc1[N+](=O)[O-] [Dinitolmide]

>  <TESTED_ON>
DU145

>  <CATEGORY_LABEL>
lo

$$$$
>  <MOLECULE>
O=C(Nc1cccc(C2=NCCN2)c1)Nc1cccc(C2=NCCN2)c1 [Imidocarb dipropionate]

>  <TESTED_ON>
DU145

>  <CATEGORY_LABEL>
mid

$$$$
>  <MOLECULE>
CCOCCn1c(C2CCN(CCc3ccc(C(C)(C)C(=O)O)cc3)CC2)nc2ccccc21 [Bilastine]

>  <TESTED_ON>
DU145

>  <CATEGORY_LABEL>
mid

$$$$
>  <MOLECULE>
COc1ccc2cc([C@H](C)C(=O)O)ccc2c1 [Naproxen Sodium]

>  <TESTED_ON>
DU145

>  <CATEGORY_LABEL>
lo

$$$$
>  <MOLECULE>
Oc1c(Cl)cc(Cl)c2cccnc12 [Chloroxine]

>  <TESTED_ON>
DU145

>  <CATEGORY_LABEL>
mid

$$$$
>  <MOLECULE>
CC(C)(Sc1cc(C(C)(C)C)c(O)c(C(C)(C)C)c1)Sc1cc(C(C)(C)C)c(O)c(C(C)(C)C)c1 [Probucol]

>  <TESTED_ON>
DU145

>  <CATEGORY_LABEL>
lo

$$$$
>  <MOLECULE>
N=C(N)NCCN1CCCCCCC1 [Guanethidine Monosulfate]

>  <TESTED_ON>
DU145

>  <CATEGORY_LABEL>
lo

$$$$
>  <MOLECULE>
NC1(c2ccc(-c3nc4ccn5c(=O)[nH]nc5c4cc3-c3ccccc3)cc2)CCC1

>  <TESTED_ON>
DU145

>  <CATEGORY_LABEL>
hi

$$$$
>  <MOLECULE>
OCC1OC(OC2OC(CO)C(O)C(O)C2O)C(O)C(O)C1O [D-(+)-Trehalose Anhydrous]

>  <TESTED_ON>
DU145

>  <CATEGORY_LABEL>
mid

$$$$
>  <MOLECULE>
NC(=S)N/N=C/c1ncccc1N [Triapine]

>  <TESTED_ON>
DU145

>  <CATEGORY_LABEL>
hi

$$$$
>  <MOLECULE>
CO[C@@]1(NC(=O)CSC[C@@H](N)C(=O)O)C(=O)N2C(C(=O)O)=C(CSc3nnnn3C)CS[C@@H]21 [Cefminox Sodium]

>  <TESTED_ON>
DU145

>  <CATEGORY_LABEL>
hi

$$$$
>  <MOLECULE>
COc1nc(C)cnc1NS(=O)(=O)c1cccnc1-c1ccc(-c2nnco2)cc1 [Zibotentan (ZD4054)]

>  <TESTED_ON>
DU145

>  <CATEGORY_LABEL>
lo

$$$$
>  <MOLECULE>
COc1cc(C(=O)NCc2ccc(OCCN(C)C)cc2)cc(OC)c1OC [Tribenzagan Hydrochloride]

>  <TESTED_ON>
DU145

>  <CATEGORY_LABEL>
mid

$$$$
>  <MOLECULE>
CN(C)C(=O)C(CCN1CCC(O)(c2ccc(Cl)cc2)CC1)(c1ccccc1)c1ccccc1 [Loperamide HCl]

>  <TESTED_ON>
DU145

>  <CATEGORY_LABEL>
mid

$$$$
>  <MOLECULE>
COC(=O)[C@H]1[C@H]2C[C@@H]3c4[nH]c5cc(OC)ccc5c4CCN3C[C@H]2C[C@@H](OC(=O)c2cc(OC)c(OC)c(OC)c2)[C@@H]1OC [Reserpine]

>  <TESTED_ON>
DU145

>  <CATEGORY_LABEL>
mid

$$$$
>  <MOLECULE>
CC#CC(=O)N1CC[C@@H](n2c(=O)n(-c3ccc(Oc4ccccc4)cc3)c3c(N)ncnc32)C1 [ONO-4059 (GS-4059) hydrochloride]

>  <TESTED_ON>
DU145

>  <CATEGORY_LABEL>
mid

$$$$
>  <MOLECULE>
Clc1ccc(C(Cn2ccnc2)OCc2csc3c(Cl)cccc23)c(Cl)c1 (centres undefined) [Sertaconazole nitrate]

>  <TESTED_ON>
DU145

>  <CATEGORY_LABEL>
mid

$$$$
>  <MOLECULE>
CC(=O)NC[C@H]1CN(c2ccc(N3CCOCC3)c(F)c2)C(=O)O1 [Linezolid]

>  <TESTED_ON>
DU145

>  <CATEGORY_LABEL>
mid

$$$$
>  <MOLECULE>
CCCCCCCCCCCCCCCCCCOCC(O)CO (centres undefined) [Batyl alcohol]

>  <TESTED_ON>
DU145

>  <CATEGORY_LABEL>
lo

$$$$
>  <MOLECULE>
O=C1Nc2ccc(Cl)cc2[C@@](C#CC2CC2)(C(F)(F)F)O1 [Efavirenz]

>  <TESTED_ON>
DU145

>  <CATEGORY_LABEL>
hi

$$$$
>  <MOLECULE>
O=C(Nc1c[nH]nc1-c1nc2ccc(CN3CCOCC3)cc2[nH]1)NC1CC1

>  <TESTED_ON>
DU145

>  <CATEGORY_LABEL>
hi

$$$$
>  <MOLECULE>
NC(=O)c1cc[n+](CC2=C(C(=O)O)N3C(=O)[C@@H](NC(=O)[C@@H](c4ccccc4)S(=O)(=O)[O-])[C@H]3SC2)cc1 [Cefsulodin sodium]

>  <TESTED_ON>
DU145

>  <CATEGORY_LABEL>
mid

$$$$
